System: Escherichia coli
Assay Context: Concentration 32 ug.mL-1; ASSAY_TEST Inhibition of Bacterial Growth; detection method Absorption (OD600); MEDIA CAMHB; plate type 384well; NBS; CORNING #3640; time 18 hr
Description: Antibacterial activity against Escherichia coli ATCC 25922 (CO-ADD:GN_001); MIC in CAMBH media using NBS plates, by OD(600)
Measured potencies and affinities stand elsewhere.
Field: Inhibition. Provide a value for each of the compounds that follow.
Supply the numeric figure in %, leaving out any unit text.

Query: GET /values?readout=Inhibition&item= N#CC1=C(N)Oc2ccc3ccccc3c2C1
Response: -5.32

Query: Can you check N#Cc1cc(C#N)c(N2CCC(Cc3ccccc3)CC2)nc1N next?
Response: -8.44

Query: Can you check O=C(O)c1cc2ccccc2[nH]1 [INDOLE-2-CARBOXYLIC ACID] next?
Response: 18.03

Query: Can you check CCOC(=O)C1=C(C)OC(N)=C(C#N)C1c1ccc(F)cc1 (stereo not given) next?
Response: -10.2

Query: Can you check CC(=O)O[C@H]1CC[C@H](NC(=O)c2ccccc2)CC1 next?
Response: -7.44

Query: Can you check CNC(=O)c1cc2cc(OCc3ccccc3)ccc2n1C next?
Response: -13.67

Query: Can you check c1ccc(COc2ccc3[nH]ccc3c2)cc1 next?
Response: 3.23

Query: Can you check O=C(Cc1c[nH]c2ccccc12)NN=C1CCCCCC1 next?
Response: 6.07

Query: Can you check CCOC(=O)c1cc(C#N)c(N)nc1C next?
Response: -11.35

Query: Can you check CC(=NNC(N)=O)c1c[nH]c2ccccc12 next?
Response: 16.24

Query: Can you check CSC1=NC(=Cc2cn(C)c3ccccc23)C(=O)N1C next?
Response: -1.24

Query: Can you check NNC(=O)CCc1c[nH]c2ccccc12 next?
Response: 6.66

Query: Can you check N#CC1=C(Cl)Oc2c(ccc3ccccc23)C1c1cccc([N+](=O)[O-])c1 (stereo not given) next?
Response: -16.88

Query: Can you check Cl.Nc1c2c(nc3c1C(c1ccccc1)c1ccc4ccccc4c1O3)CCCC2 (stereo not given) next?
Response: 6.79

Query: Can you check COc1ccc(C2c3c(nc4c(c3N)CCCC4)Oc3ccc4ccccc4c32)cc1OC (stereo not given) next?
Response: 13.42

Query: Can you check O=C(N/N=C/c1c[nH]c2ccccc12)c1ccc(Cl)cc1 next?
Response: 9.43

Query: Can you check NC(=O)c1cc2cc(OCc3ccccc3)ccc2[nH]1 next?
Response: -8.75

Query: Can you check N#Cc1cccnc1Cl next?
Response: -20.17

Query: Can you check CC1(C)OC(=O)C(=Cc2ccc([N+](=O)[O-])cc2)C(=O)O1 next?
Response: 10.5

Query: Can you check CCOC(=O)c1cn(C)c2ccccc12 next?
Response: 4.13

Query: Can you check COc1ccc(C2c3ccc4ccccc4c3OC(=NBr)C2(Br)C#N)cc1 (stereo not given) next?
Response: -8.93

Query: Can you check CCOC(=O)c1cc2cc(OCc3ccccc3)ccc2[nH]1 next?
Response: 5.9

Query: Can you check CCCCNNC(=O)c1cc2ccccc2[nH]1 next?
Response: -2.05

Query: Can you check Cc1[nH]nc2c1C(c1cccc([N+](=O)[O-])c1)C(C#N)=C(N)O2 (stereo not given) next?
Response: 4.04

Query: Can you check COc1ccc(-c2cc(-c3cc4c(C)cc(C)cc4nc3Cl)cc(=O)[nH]2)cc1 next?
Response: -16.03
